The binders listed here are annotated with their EC50 relative to KD005.
Biological target: T1, recombinant human TROP2 extracellular domain (aa 1-274) comprising His tag (human, UniProt P09758 27-274)
T1 construct: Used here for all assays on recombinant human TROP2 (ELISA, immunoblot, SPR, crystal), although only some of them name the catalogue number; also called human recombinant TROP2; recombinant human TROP2 protein; not shown: His tag
T1 sequence: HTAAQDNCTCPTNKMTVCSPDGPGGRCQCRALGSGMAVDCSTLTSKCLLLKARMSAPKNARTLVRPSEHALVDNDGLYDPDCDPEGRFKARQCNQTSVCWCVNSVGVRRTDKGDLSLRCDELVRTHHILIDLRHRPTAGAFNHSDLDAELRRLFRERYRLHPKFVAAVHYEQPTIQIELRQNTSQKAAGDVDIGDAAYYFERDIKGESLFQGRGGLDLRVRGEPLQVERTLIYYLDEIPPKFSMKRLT
Test: ELISA, coated rh TROP2, normalized to KD005

KD054 (antibody, V domains shown, KD005 humanized variant) VH: QVQLQESGGGLIQPGGSLRLSCAASGFTFSGSDMSWVRQAPGKGLEWVSYITSGGTTYYADTVKGRFTISRDNSKNTLYLQMNSLRAEDTAVYRCAKSRLTDSHYVEDAWGQGTLVTVSS    0.93 ratio to KD005
KD056 (antibody, V domains shown, KD005 humanized variant) VH: QVQLVESGGGLIQPGGSLRLSCAASGFTFSGSDMSWVRQAPGKGLEWVSYITSGGTTYYADTVKGRFTISRDNSKNTLYLQMNSLRAEDTAVYRCAKSRLTDSHYVEDAWGQGTLVTVSS    1.21 ratio to KD005
KD057 (antibody, V domains shown, KD005 humanized variant) VH: QVQLQESGGGLIQPGGSLRLSCAASGFTFSGSDMSWVRQAPGKGLEWVSVITSGGTTYYADTVKGRFTISRDNSKNTLYLQMNSLRAEDTAVYRCAKSRLTDSHYVEDAWGQGTLVTVSS    1.15 ratio to KD005

Pending binder:
The binder identified as KD046 (antibody, V domains shown, KD005 humanized variant) VH: QVQLLESGGGLVQPGGSLRLSCAASGFTFSGSDMSWVRQAPGKGPEWVSYITSGGTTYYADTVKGRFTISRDNSKNTLYLQMNSLRAEDTAVYYCAKSRLTDSHYVEDAWGQGTLVTVSS registered its EC50 relative to KD005 at 0.9 ratio to KD005
